The reported measurements were obtained from ChEMBL document CHEMBL1138068.

Assay: Oral bioavailability in monkey at 3 mg/kg, po
Assay type: ADME, organism-based, Macaca mulatta
Details: rhesus monkey, in vivo
measurementLabel: bioavailability (%)
Answers are plain numbers, in %.

Incoming: Look up bioavailability for this compound: Cc1coc2ccc(N3C[C@@]4(CN5CCC4CC5)OC3=O)cc12
Outgoing: 57.2

---

Experiment: Tmax in monkey at 3 mg/kg, iv
Assay type: ADME, organism-based, Macaca mulatta
Parameters: dose 3 mg/kg, route intravenous
Details: rhesus monkey, in vivo
measurementLabel: Tmax (min)
One number for each entry, in min.

Incoming: Look up Tmax for this molecule: Cc1coc2ccc(N3C[C@@]4(CN5CCC4CC5)OC3=O)cc12
Outgoing: 21.6

---

Biological target: D(3) dopamine receptor (Homo sapiens, UniProt P35462)
Sequence (P35462 whole entry): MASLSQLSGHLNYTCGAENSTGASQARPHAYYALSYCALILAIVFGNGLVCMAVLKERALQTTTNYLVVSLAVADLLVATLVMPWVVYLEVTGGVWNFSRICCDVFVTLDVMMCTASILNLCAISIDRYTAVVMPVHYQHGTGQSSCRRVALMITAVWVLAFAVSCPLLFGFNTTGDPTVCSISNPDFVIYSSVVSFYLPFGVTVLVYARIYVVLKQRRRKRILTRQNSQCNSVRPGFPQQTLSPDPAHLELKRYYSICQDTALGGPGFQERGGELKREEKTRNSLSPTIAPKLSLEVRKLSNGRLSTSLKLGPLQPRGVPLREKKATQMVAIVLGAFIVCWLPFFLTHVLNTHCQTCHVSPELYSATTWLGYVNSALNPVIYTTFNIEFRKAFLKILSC
Test: Binding affinity to D3 receptor
pIC50: −log10 of the molar value.
measurementLabel: pIC50

Incoming: Look up pIC50 for this compound: Cc1coc2ccc(N3C[C@@]4(CN5CCC4CC5)OC3=O)cc12
Outgoing: < 5.00

---

Experiment: Oral bioavailability in monkey at 10 mg/kg, po
Format: ADME, organism-based, Macaca mulatta
Conditions: rhesus monkey, in vivo
measurementLabel: bioavailability (%)
Answers are plain numbers, in %.

Incoming: Look up bioavailability for this compound: Cc1coc2ccc(N3C[C@@]4(CN5CCC4CC5)OC3=O)cc12
Outgoing: 82.8

---

Experiment: Clearance in monkey at 3 mg/kg, iv
Format: ADME, organism-based, Macaca mulatta
Design: dose 3 mg/kg, route intravenous
Conditions: rhesus monkey, in vivo
measurementLabel: clearance (mL/min/kg)
Numbers only, in mL/min/kg.

Incoming: Look up clearance for this compound: Cc1coc2ccc(N3C[C@@]4(CN5CCC4CC5)OC3=O)cc12
Outgoing: 70.2

---

Assay: Cmax in rat at 30 mg/kg, po
Type: ADME, organism-based
Design: dose 30 mg/kg, route oral
Details: in vivo
measurementLabel: Cmax (ng/mL)
Answers are plain numbers, in ng/mL.

Incoming: Look up Cmax for this molecule: Cc1coc2ccc(N3C[C@@]4(CN5CCC4CC5)OC3=O)cc12
Outgoing: 618

---

Assay: Half life in rat at 10 mg/kg, po
Type: ADME, organism-based
Parameters: dose 10 mg/kg, route oral
Conditions: in vivo
measurementLabel: half-life (h)
One number for each entry, in h.

Incoming: Look up half-life for this compound: Cc1coc2ccc(N3C[C@@]4(CN5CCC4CC5)OC3=O)cc12
Outgoing: 3

---

Target: Neuronal acetylcholine receptor subunit alpha-7 (Rattus norvegicus, UniProt Q05941)
Sequence (Q05941 whole entry): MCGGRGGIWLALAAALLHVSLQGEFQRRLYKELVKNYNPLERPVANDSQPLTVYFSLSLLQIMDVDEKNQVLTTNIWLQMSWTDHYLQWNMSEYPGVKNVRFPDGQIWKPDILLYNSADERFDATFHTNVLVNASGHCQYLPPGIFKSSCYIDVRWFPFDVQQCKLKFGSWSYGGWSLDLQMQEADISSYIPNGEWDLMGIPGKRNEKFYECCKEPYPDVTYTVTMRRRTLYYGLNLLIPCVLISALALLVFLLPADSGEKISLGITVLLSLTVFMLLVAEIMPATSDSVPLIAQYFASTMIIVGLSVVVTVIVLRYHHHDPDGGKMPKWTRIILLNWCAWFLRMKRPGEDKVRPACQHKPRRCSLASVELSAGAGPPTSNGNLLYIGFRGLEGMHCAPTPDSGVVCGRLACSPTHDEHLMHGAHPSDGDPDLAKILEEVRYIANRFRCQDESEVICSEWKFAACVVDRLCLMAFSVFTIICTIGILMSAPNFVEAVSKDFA
Test: Displacement of [125I]alpha-BTX from alpha-7 nAChR in rat hippocampus membrane
What IC50 was measured for each of the following?

Sample records with IC50:
                                   molecule  valuemeasured
0  Cn1c(=O)oc2cc(N3CC4(CN5CCC4CC5)OC3=O)ccc21 (single isomer, unassigned)         > 1 µM
1  Cn1c(=O)sc2cc(N3CC4(CN5CCC4CC5)OC3=O)ccc21 (single isomer, unassigned)         > 1 µM

Incoming: Look up IC50 for this molecule: O=C1OC2(CN3CCC2CC3)CN1c1ccc2ncccc2c1 (single isomer, unassigned)
Outgoing: > 1 µM

---

Experiment: Tmax in rat at 30 mg/kg, po
Type: ADME, organism-based
Parameters: dose 30 mg/kg, route oral
Details: in vivo
measurementLabel: Tmax (min)
Give bare numbers, in min.

Incoming: Look up Tmax for this compound: Cc1coc2ccc(N3C[C@@]4(CN5CCC4CC5)OC3=O)cc12
Outgoing: 22.8
